System: human lymphoblastoid cell lines 536
Experiment: Tritiated thymidine incorporation (DNA synthesis) bioassay in 536 cells
Type: cell-based
Details: after 24 and 48 hours drug exposure, radiolabelled thymidine incorporation (FIG. 4), read-out: ID50% concentration-dependent inhibition of DNA synthesis
Description: Rapamycin induces a specific cell cycle arrest in G1 in the cell line 536, which is a human B lymphocytic line immortalised by Epstein Barr virus infection. The potency of each analogue was compared to that of rapamycin using the 536 cells as a bioassay. […] Radioactivity incorporated into the filter discs/trapped DNA was counted in a Packard scintillation counter using biodegradable scintillation fluid. The dose response of human lymphoblastoid cell lines 536 was measured. […]
EXPERIMENTAL_ENDPOINT: IC50 (nM)
Quick note: give the figure in nM, leave out the unit.

Reported IC50 for COC1CC2CCC(C)C(O)(O2)C(=O)C(=O)N2CCCC2C(=O)OC(C(C)CC2CCC(O)C(OC)C2)CC(=O)C(C)/C=C(\C)C(O)C(OC)C(=O)C(C)CC(C)/C=C/C=C/C=C/1C (stereo not shown) was 3
